System: SK-MEL-2 melanoma
assay summary: NCI tumour cell line growth inhibition, 48 h

{"columns": ["compound", "TGI"],
 "data": [
  ["CCOC(=O)c1c(/C=N\\Nc2ccccc2)nc2ccccc2c1-c1ccccc1", "> 100 µM"],
  ["Cc1cc2c(SCc3ccccc3Cl)nc(N)nc2nc1C", "> 100 µM"],
  ["COC(=O)C1CCC(=S)N1C(C)=O (stereo unspecified)", "> 100 µM"],
  ["CCCCSC1=N/C(=C\\c2ccccc2O)C(Cl)=N1", "> 100 µM"],
  ["O=C(O)C12C3C4C1C1C2C3C41I (stereo unspecified)", "> 100 µM"],
  ["CCOC(=O)NC/C=C/CO", "> 100 µM"],
  ["COc1ccc(OC)c2c(Nc3ccc(S(=O)(=O)O)c4cc(S(=O)(=O)O)cc(S(=O)(=O)O)c34)cc(C)nc12", "> 100 µM"],
  ["C=CCCC1(CCP(=O)(c2ccccc2)c2ccccc2)OCCO1", "> 100 µM"],
  ["O=C1C(=O)c2c(ccc3ccccc23)-c2ccccc21", "3.78 µM"],
  ["Cc1c(Cl)cc(C(C)(C)C)c(O)c1Cc1c(C)c(Cl)cc(C(C)(C)C)c1O", "3.9 µM"],
  ["CC(=O)Nc1ccc(C(=O)COc2cccc(/C=C3\\CCc4ccccc4C3=O)c2)cc1", "65.8 µM"]
]}
